Cited source: patent US12144869B2

# System under test: T1, human ROR1-Fz (Homo sapiens, UniProt Q01973)
# T1 construct: Frizzled (Fz, residues 165-305); His6 (C); purchased Acro Biosystems; host or cells: HEK293
# T1 sequence (Q01973 165-305): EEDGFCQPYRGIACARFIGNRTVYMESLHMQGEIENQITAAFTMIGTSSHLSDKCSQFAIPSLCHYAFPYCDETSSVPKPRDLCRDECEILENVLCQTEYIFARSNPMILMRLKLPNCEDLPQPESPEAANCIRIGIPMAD
# Method: Biacore off-rate and kinetic analysis, ROR1-Fz
# Assay type: binding
# Condition label: Table 11; SP34 light chain
Readout name: Biacore human ROR1-Fz ka (M⁻¹ s⁻¹)

[[record]]
molecule = "SRP2196-A11 (antibody, V domains shown) VH: EVQLVESGGGLVQPGGSLRLSCAASGFNITGYYIHWVRQAPGKGLEWVGQISPNSGTTYDADSVKGRFTISADTSKNTAYLQMNSLRAEDTAVYYCARDSRRYVRGWDYWGQGTLVTVSS VL: QAVVTQESALTTSPGETVTLTCRSSTGAVTTSNYANWVQEKPDHLFTGLIGGTNKRAPGVPARFSGSLIGDKAALTITGAQTEDEAIYFCALWYSNLWVFGGGTKLTVL"
reading_unit = "M⁻¹ s⁻¹"
recorded_number = 191000

[[record]]
molecule = "SRP2196-C02 (antibody, V domains shown) VH: EVQLVESGGGLVQPGGSLRLSCAASGFNITGYHIHWVRQAPGKGLEWVGFISPNSGWTYSADSVKGRFTISADTSKNTAYLQMNSLRAEDTAVYYCARDSRRYVRPFDYWGQGTLVTVSS VL: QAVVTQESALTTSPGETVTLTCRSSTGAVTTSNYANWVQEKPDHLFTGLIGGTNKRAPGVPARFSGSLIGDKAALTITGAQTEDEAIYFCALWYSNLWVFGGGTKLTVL"
reading_unit = "M⁻¹ s⁻¹"
recorded_number = 119000

